Please go through the items and note down their apparent Kd.
# Tested on: MS2 coat protein
# Assay text: apparent Kd, MS2 coat protein; higher = weaker binding; RNA-MaP array; FMN 200 µM where present
# Setup conditions: ligand present: flavin mononucleotide; designed as: ON switch for flavin mononucleotide
Reply with just the number (in nM).

Query: Can you look up apparent Kd on MS2 coat protein for AAAAAACAUGAGGAUCACCCAUGUCUUCGGACAUGAGGAUAUGUACAGACUUCGGUCUGUACAGAAGGCAUGUCAA ?
Reply: 23.2

Query: Test system MS2 coat protein; read-out apparent Kd; what value for CGUUGAUUUAUUGGAUGAUAUGAUGAGGAUAUCAAUAUUUGUUACAUGAGGAUCACCCAUGUUAAUGAGAAGGCAUAAUUAACG ?
Reply: 7.96

Query: Hello, I am looking for reported apparent Kd with MS2 coat protein for AAAAAAAAAACUCAGGAUAUAGAUCGUUGAACAUGAGGAUCACCCAUGUAGUGAAAAGCGAAAAACUAGAAGGGAGGAAAAAAAAA . Could you help?
Reply: 19.8

Query: Checklist item: apparent Kd tested on MS2 coat protein, entry CCGGGCGGUUUGCCCACACUGUCACAGGAUAUGCCCAAAACAUGAGGAUCACCCAUGUCAAAUACGCAGAAGGGUGAUCGGAAA , value?
Reply: 37

====

Assignment: determine reported apparent Kd for the given sequences.
# Tested on: MS2 coat protein
# Assay text: apparent Kd, MS2 coat protein; higher = weaker binding; RNA-MaP array; FMN 200 µM where present
# Setup conditions: ligand present: flavin mononucleotide; designed as: ON switch for flavin mononucleotide
Please give the number followed by its unit.

Query: Which value of apparent Kd has been reported for GUAGCAUAGGGAGGAUAUUCAUAUAAUAAAUAAACAUGAGGAUCACCCAUGUGGCGAAAGCCUUGGGAGAAGGCCCAAUGCUAC in the records?
Reply: 0.0362 µM

Query: // lookup apparent Kd for GAAUUCGCAUGAGGAUAUGCACUCAUUUCAUGUGCAGAAGGUAUAUCAUUAGACAUGAGGAUCACCCAUGUAUUGGUCAUUAAA
Reply: 0.0139 µM

Query: Which apparent Kd is listed for UUAUGAUUAAGAGGAUAUAUACAACAUGAGGAUCACCCAUGUACCCAUGUAGUAGAAGGUUUAUUUUUAUAUAAUAAUAUAAUU ?
Reply: 0.0649 µM

Query: Reported apparent Kd, sequence AGUGUCAUCGAGAAGGCCUCAACAUGAGGAUCACCCAUGUUGCAAAAUGGGAGGAUAUCGCGCGUUCUAAAACGUUUCGUAGCA : ____
Reply: 0.018 µM

Query: Please give the measured apparent Kd for this sequence: UUGGACGUCGGAGGAUAUGUAGGAUAUUCCUACAUGAGGAUCACCCAUGUUGACAUGGAAGAAGGACAGAAGGACGAUGUCCAU
Reply: 0.00483 µM

Query: Request the reported apparent Kd associated with AGAUUUGUACAUGAGGAUCACCCAUGUUAAUAGGUGGUUGUCAGAAGGCAUUAAUAGAGAUUUAAUGAGGAUAUGAAUUUACAA
Reply: 1.04 µM

Query: For the sequence GGUCAACAUGAGGAUCACCCAUGUAAGCCAAGGCAAGGAUAUGGGUAUAGGGUACUAGGGUUAGAAGGUGCCAAUA , what apparent Kd is on record?
Reply: 0.182 µM

Query: Requested field: apparent Kd. Item: UUGAAUUUAAACAUGAGGAUCACCCAUGUGUCAUAGUUGAUAUAGGAUAUGCUUAUACUUUGAAAGCAGAAGGAUGACGAUACU
Reply: 0.0119 µM

Query: Given the sequence AGUUACAUACUCAACAUGAGGAUCACCCAUGUACUCUCUUGUAAGGAUAUACAUUCGUAUUGAAAGUAGAAGGUACUAAUUAUG , what is its reported apparent Kd?
Reply: 0.0773 µM

Query: Returns the measured apparent Kd for the input sequence. Input: AAGGCCUAUUCCAGGACUAUCGUACUAGAAGGGUGACCUGACAUGAGGAUCACCCAUGUACGGGCACAGGAUAUAGAUGAAAGG
Reply: 0.0113 µM

Query: Could you share which apparent Kd value was measured for GUAGCAUUCUGAGGAUAUUCAUAUAAUAAAUAAACAUGAGGAUCACCCAUGUGGCGAAAGCCUUGGGAGAAGGCAGUAUGCUAC ?
Reply: 0.0421 µM

Query: I am curious: what apparent Kd value has been reported for AAUAUUUAUUGAGGAUAUUCAUACACUGUAUACGGAGAAGGCAAUCAAUCAUGAGGACAUGAGGAUCACCCAUGUUGUGACCAU ?
Reply: 0.00969 µM

Query: GET /values?readout=apparent Kd&item= UUGGACGUCGUAGGAUAUGUAGGAUAUUCCUACAUGAGGAUCACCCAUGUUGACAUGGAAGAAGGACAGAAGGACGAUCUCCAU
Reply: 0.00549 µM

Query: Suppose we examine the sequence UAUAGUGGCGUAGGAUAUCUGCGUACAUGAGGAUCACCCAUGUCUCCCAGCAGCUGAUCUGGGACAGAGAAGGGCGACCGCAUA ; what apparent Kd value has been reported?
Reply: 0.0636 µM

====

# System: MS2 coat protein
# Assay text: apparent Kd, MS2 coat protein; higher = weaker binding; RNA-MaP array
# Setup conditions: designed as: OFF switch for flavin mononucleotide; no ligand
Quantity measured: apparent Kd (nM)
Report the value in nM with no unit label.

Query: Record request: apparent Kd value, item UGAACCGGAAAGAAGGCCUUGCUUUAACGUACAGGAGGAUAUUUCCUAUUUGUGAGCCUUGACAUGAGGAUCACCCAUGUAUCG
Reply: 479

Query: Look up apparent Kd for this sequence: UCGGCACAUGAGGAUCACCCAUGUAAGGAUAUACGAAGCUUGCAGUCGCUGUUAUUUGGUAGAAGGUACCCUCG
Reply: 14.5

Query: Item under review: AUGAGUAUUAAAGGAUAUCACUUAAUUGAUUGAUGAGAAGGUUAGAUGGCAUACAUGAGGAUCACCCAUGUGGUUUCAUGCGGU . Reported apparent Kd?
Reply: 86.3

Query: Item UCUAUGCUAACAGGAUAUCGCGGCACGAUGCUUCGAGAAGGGUUAACAUGAGGAUCACCCAUGUGUGUCCUACGGAGACCGCGC has what recorded apparent Kd?
Reply: 9.01

Query: Look at this sequence and give its reported apparent Kd. GUGGCAGGUGUCAGCCACAUGAGGAUCACCCAUGUUACUGAUCAGGAUAUUCGUGUGCGUCGCCGGAAGAAGGGAUUUGGACAU
Reply: 123

Query: Recorded apparent Kd for UCAGGUCCGAAGAAGGCGAAGCAACAUUACUAUCGAGGAUAUUCUACAUGAGGAUCACCCAUGUCACCAUCGAUGACAGAGAAU , please?
Reply: 7.65

Query: Which apparent Kd value belongs to AUGGUGGCUUCAGGAUAUCGCAAGUUAAUACGUCCCACAUGAGGAUCACCCAUGUAACGGUGGGUCGAGAAGGGAACCAUCCCG ?
Reply: 90.8

Query: Endpoint output: apparent Kd of GCAGGUAAGUAGAAGGGUCGCACCAUACUGACGACAGGAUAUACUGUCCGAAACUCGUCAUUACAUGAGGAUCACCCAUGUUUA . Value?
Reply: 21.2

Query: Query (sequence): GAGAGGGCUUGAGGAUAUCUUCACUCCGACAUGAGGAUCACCCAUGUAUUCCGUUGAUCGUUGGGAGAGAAGGCAACUUUGUAA ; field requested: apparent Kd
Reply: 58

Query: Need apparent Kd, item UCACGGUCAGGAUAUCCUACCUUAGGGCAACCAUGGUAAACGGAGAAGGGACAUGAGGAUCACCCAUGUACAGC
Reply: 12.9

Query: Please report the recorded apparent Kd for CCCGGUGAUGUCAAACAUGAGGAUCACCCAUGUCUUCACCAUAGAAGGCGCUUUAUUCUAGCUAGCGAGGAUAUAUGGUUUCAG .
Reply: 39.6

Query: Need apparent Kd, item UGGAAGUAAGGAUAUCCGCGCGCGGGUUUUGCGCACGCACUGGAGAAGGUACAUGAGGAUCACCCAUGUUCGUC
Reply: 9.85

Query: Which apparent Kd reading was recorded for the sequence AAUUGGUGACUAGGAUAUUAGGGAUGGCCGUACUAAGAAGGAGUCGUGCUAACAUGAGGAUCACCCAUGUAUUGGAAGCCUUAA ?
Reply: 15.5

Query: Quick check: apparent Kd of UAUCUACUAUGAGGAUAUCGACAAUGGAUGAACAUGAGGAUCACCCAUGUAACUCAUGGUCCCUUCGAGAAGGCAUGCUAUAAC ?
Reply: 55

Query: Find the recorded apparent Kd belonging to UGAGACAGAGGAUAUACAAAAGGGAAACGAGCACAGAGGAAACAUGAGGAUCACCCAUGUAGAAGGCUGAACAG and report it.
Reply: 6.99

Query: Look at this sequence and give its reported apparent Kd. AUUUUAAACAAGAAGGGCUUACGCAAGCUGAGAGCAGGAUAUUGACAUGAGGAUCACCCAUGUAUUAGACCAUAAGAUCCCAUU
Reply: 20.5

Query: Name the reported apparent Kd value associated with the sequence AAACUUACAGGAUAUACAUGAGGAUCACCCAUGUAAACGAAACACCAGGUGAUAGUGGGUAGAAGGGAAUAAAC
Reply: 22.7

Query: So what's the measured apparent Kd for this one? AUGCACUCAGUCAGGAUAUGCAACUUAUAAUACAGGCAGAAGGGACAUGAGGAUCACCCAUGUGGCCGGUAAGA
Reply: 9.13

Query: Entry CACCUCCAAGGAUAUACAUGAGGAUCACCCAUGUGGAUAACCUGGGCGCGCCGAGCAAGUAGAAGGUGGAUUGG has what apparent Kd?
Reply: 10.9

Query: // lookup apparent Kd for GGUGAGUCAGGAUAUUGUGCAUUUGAGACCCACACGGGACACAAGAAGGGACAUGAGGAUCACCCAUGUGCUCA
Reply: 9.73

Query: Consider the sequence UCAAUCACACAUGAGGAUCACCCAUGUGAUAAUCAUGACUCAAGAAGGCAUGUGCAACUUGUUAAUGAGGAUAUUGGAGUAAUG and give its measured apparent Kd.
Reply: 31.9

Query: What apparent Kd value was documented for this sequence, UAGGGUCUGUCGCGACAUGAGGAUCACCCAUGUGCUUAGUCAAGAAGGGCGGACAUGCAAAACCCGCAGGAUAUUGUAUGCACU ?
Reply: 254

Query: Fill in the blank: the reported apparent Kd of GGCUCCGUAGGAUAUCGUAUUAGCGACAUGAGGAUCACCCAUGUUCAUUUGUCCUCAAUACGAGAAGGACGAACUC is ____.
Reply: 16.1

Query: Which measured apparent Kd value corresponds to CUAACACAUGAGGAUCACCCAUGUUAGGAUAUCAGCUGCAGCGCUCGACUGCAAUUUAUGAGAAGGAACUGUGG ?
Reply: 17.5

Query: Look up apparent Kd: AGAAAUACAUGAGGAUCACCCAUGUGCAUCCUGACUAGUUGACAGGAUAUCAGUCUUACCUGGGCUGAGAAGGGUCCGCGUAGC
Reply: 19.8

Query: Look up apparent Kd for this sequence: AUGUGAUAGGAGAAGGGCUGUCCAUGGACAUCACAGUACAUCCACAUGAGGAUCACCCAUGUUAAGCAGGAUAUCCUGUCGUGU
Reply: 27.2

Query: Using the record for UAGUCGUGGGCAGGAUAUCACUUUAUGCCAAUAUGAGAAGGGCCGGUGACAAGGCGGGCGACCACAUGAGGAUCACCCAUGUAC , report its apparent Kd.
Reply: 79.6

Query: So what's the measured apparent Kd for this one? ACAUGAGGAUCACCCAUGUACAUUUAUACUGGGAGACUAUCGUAGGAUAUAUGAACAAGCAUUCUAUAGAAGGACGAAAAGAUC
Reply: 59.4

Query: May I ask what apparent Kd has been recorded for GUAUGGGCUGUAAGGAUAUCUAAGCCGGUUGUGGCAGAGAAGGUACAUGAGGAUCACCCAUGUGGACUUGGGUC ?
Reply: 13.9

Data credit: the EternaBench riboswitch data
